Ref: paper PMC3071374

Target: Leishmania CRK3:CYC6 (Leishmania major)
Sequence (Q4Q4U0 entry or part of it): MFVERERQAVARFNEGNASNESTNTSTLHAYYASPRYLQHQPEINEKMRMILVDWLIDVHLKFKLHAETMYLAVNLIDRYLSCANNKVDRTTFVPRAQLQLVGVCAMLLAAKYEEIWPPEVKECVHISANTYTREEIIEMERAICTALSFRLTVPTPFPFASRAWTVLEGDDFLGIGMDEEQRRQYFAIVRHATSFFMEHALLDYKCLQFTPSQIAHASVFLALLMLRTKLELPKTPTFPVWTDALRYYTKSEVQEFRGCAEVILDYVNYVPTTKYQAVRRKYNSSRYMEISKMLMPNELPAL
Sequence (O96526 entry or part of it): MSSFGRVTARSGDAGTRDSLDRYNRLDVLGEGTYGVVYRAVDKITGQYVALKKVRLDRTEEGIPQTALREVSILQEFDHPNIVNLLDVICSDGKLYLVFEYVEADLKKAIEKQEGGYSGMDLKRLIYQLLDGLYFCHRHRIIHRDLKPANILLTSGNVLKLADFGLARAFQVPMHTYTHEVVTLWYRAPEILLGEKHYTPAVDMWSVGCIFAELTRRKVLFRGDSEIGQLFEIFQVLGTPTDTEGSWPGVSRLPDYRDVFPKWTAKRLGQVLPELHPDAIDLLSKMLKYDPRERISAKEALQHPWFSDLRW
Type: biochemical
Settings: BioFocus SFK48 HTS hits, rescreen
Measured IC50 values are reported for all entries that follow.

molecule	IC50 (µM)
NC(c1ccccc1)c1csc(NC(=O)Nc2ccccc2)n1 (stereo not shown)	3.5
CC(C)c1ccccc1NC(=O)Nc1nc(C2CCC(=O)N2)cs1 (stereo not shown)	7.8
COc1ccc(C(N)c2csc(NC(=O)Nc3ccc(C(C)C)cc3)n2)cc1 (stereo not shown)	7.5
NC(c1ccccc1)c1csc(NC(=O)Nc2ccccc2Cl)n1 (stereo not shown)	4.8
Cc1ccccc1NC(=O)Nc1nc(C(N)c2ccccc2Cl)cs1 (stereo not shown)	9
COc1ccc(CC(N)c2csc(NC(=O)Nc3ccccc3Oc3ccccc3)n2)cc1 (stereo not shown)	5
NC(c1ccccc1)c1csc(NC(=O)Nc2ccc(OC(F)(F)F)cc2)n1 (stereo not shown)	10

====

Biological target: UniProtKB P11802
Sequence (P11802 whole entry): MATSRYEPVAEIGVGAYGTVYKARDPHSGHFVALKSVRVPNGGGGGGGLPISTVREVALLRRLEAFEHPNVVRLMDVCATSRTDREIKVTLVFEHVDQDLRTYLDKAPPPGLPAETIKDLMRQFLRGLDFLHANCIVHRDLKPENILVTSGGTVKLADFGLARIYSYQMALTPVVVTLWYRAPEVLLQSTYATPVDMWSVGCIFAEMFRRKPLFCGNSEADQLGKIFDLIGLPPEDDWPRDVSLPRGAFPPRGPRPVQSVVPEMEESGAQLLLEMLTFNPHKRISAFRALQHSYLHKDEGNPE
Sequence (P24385 whole entry partner): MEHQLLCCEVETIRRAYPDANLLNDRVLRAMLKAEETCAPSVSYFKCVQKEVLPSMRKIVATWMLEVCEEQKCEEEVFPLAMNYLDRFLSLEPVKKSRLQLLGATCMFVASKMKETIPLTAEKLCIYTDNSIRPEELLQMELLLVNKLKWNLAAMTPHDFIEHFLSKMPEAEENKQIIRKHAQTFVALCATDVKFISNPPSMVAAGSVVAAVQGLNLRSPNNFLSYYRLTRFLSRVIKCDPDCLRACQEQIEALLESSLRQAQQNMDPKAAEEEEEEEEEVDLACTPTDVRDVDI
pIC50: −log10 of the molar value.

molecule	pIC50
CCC(CC)Nc1nc(CC2CCCCC2)nc2c1nnn2-c1ccc(OC)cc1 [Compound 8]	4.57
COc1ccc(-n2nnc3c(N4CCCC(CO)C4)nc(CC4CCCCC4)nc32)cc1 (stereo not shown) [Compound 6]	5.04
COc1ccc(-n2nnc3c(N(C)C(CN4CCCCC4)c4ccccc4)nc(CC4CCCCC4)nc32)cc1 (stereo not shown) [Compound 7]	4.71
CCCN(c1nc(CC2CCCCC2)nc2c1nnn2-c1ccc(OC)cc1)C1CCCC1N(C)C (stereo not shown) [Compound 2]	5.25

====

Target: Leishmania CRK3:CYC6 (Leishmania major)
Type: biochemical
Conditions: synthesised azapurine derivatives
pIC50: −log10 of the molar value.
Measured pIC50 values are reported for all entries that follow.

compound	pIC50
COc1ccc(-n2nnc3c(NCC(C)O)nc(Cc4ccccc4)nc32)cc1 (stereo not shown)	< 4.00
OC1CCCN(c2nc(CC3CCCCC3)nc3c2nnn3Cc2ccc(F)cc2)C1 (racemic)	4.32
COc1ccc(-n2nnc3c(N4CCCC(CO)C4)nc(Cc4ccccc4)nc32)cc1 (stereo not shown)	< 4.70
COc1ccc(-n2nnc3c(NCCN4CCOCC4)nc(CC4CCCCC4)nc32)cc1	< 4.30
ONc1nc(CC2CCCCC2)nc2c1nnn2Cc1ccc(F)cc1	< 4.30
COc1ccc(-n2nnc3c(O)nc(Cc4ccc(Br)cc4)nc32)cc1	< 4.30
COc1ccc(-n2nnc3c(NCCN4CCOCC4)nc(Cc4ccccc4)nc32)cc1	< 4.00
